- Tested system: AP-2 complex subunit beta (Homo sapiens) (UniProt P63010)
- Sequence (P63010 whole entry, looked up, one chain of several): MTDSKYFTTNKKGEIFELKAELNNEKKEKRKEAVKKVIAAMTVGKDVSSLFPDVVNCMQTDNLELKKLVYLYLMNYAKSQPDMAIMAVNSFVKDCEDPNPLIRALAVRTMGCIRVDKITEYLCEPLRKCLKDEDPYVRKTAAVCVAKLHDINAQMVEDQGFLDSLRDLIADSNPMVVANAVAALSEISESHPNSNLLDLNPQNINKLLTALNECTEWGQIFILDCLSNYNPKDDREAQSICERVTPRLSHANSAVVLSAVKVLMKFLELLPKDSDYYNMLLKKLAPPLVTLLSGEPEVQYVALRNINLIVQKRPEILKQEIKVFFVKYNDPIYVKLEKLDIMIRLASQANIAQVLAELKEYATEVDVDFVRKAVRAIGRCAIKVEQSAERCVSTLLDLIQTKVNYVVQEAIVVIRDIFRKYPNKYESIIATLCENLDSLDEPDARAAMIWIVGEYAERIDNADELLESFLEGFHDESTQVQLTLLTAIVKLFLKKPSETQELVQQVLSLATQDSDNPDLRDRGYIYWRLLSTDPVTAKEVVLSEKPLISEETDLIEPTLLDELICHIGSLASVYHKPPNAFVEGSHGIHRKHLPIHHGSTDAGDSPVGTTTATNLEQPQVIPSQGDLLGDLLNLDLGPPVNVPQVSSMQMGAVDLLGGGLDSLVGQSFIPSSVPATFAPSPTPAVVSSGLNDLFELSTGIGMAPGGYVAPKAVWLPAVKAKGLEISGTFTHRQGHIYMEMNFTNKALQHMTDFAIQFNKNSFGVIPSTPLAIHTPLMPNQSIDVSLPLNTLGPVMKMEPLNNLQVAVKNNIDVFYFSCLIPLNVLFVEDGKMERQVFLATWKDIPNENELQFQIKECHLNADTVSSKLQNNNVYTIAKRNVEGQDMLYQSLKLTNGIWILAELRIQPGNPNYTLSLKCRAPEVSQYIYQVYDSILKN
- Experiment notes: beta-arrestin/AP2 interaction blockers – biochemical, validation set, GST-AP2 beads, flow cytometry, pilot screen (AID 504541);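 also: AP2 carries R879A mutation and is captured from E. coli lysate; bead-bound FITC arrestin peptide fluorescence measuring arrestin peptide binding to AP2; 0% = DMSO wells and 100% = excess unlabeled arrestin peptide control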
- Condition info: FITC arrestin peptide, at 10 µM, AP2 beta2 appendage fragment, R879A mutant
Activity calls are given as the source filed them.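 The calls were made as follows: active = inhibition above 54%, about 3 SD of non-fluorescent compounds; inactive = the rest.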
The reply should be one of these categories: yes = active, no = inactive

Hi, sorry to bother you, what did the test record for COc1cccc2c1OCC1COc3c(c(=O)n(C)c(=O)n3C)C21 (stereo not drawn) ?
yes

Query COCCOC(=O)C1=C(N)OC2=C(C(=O)CCC2)C1c1cccnc1 (stereo not drawn) next
no

Query CC(C)OC(=O)CC12CN3CN(C1)CC(CC(=O)OC(C)C)(C3)C2=O next
no

Query COc1cc(CNCCc2c[nH]c3ccccc23)cc(Cl)c1OCC(N)=O next
no

Query CCOC(=O)C1C2C=CC3(CN(c4ccc(Cl)c(F)c4)C(=O)C13)O2 (stereo not drawn) next
no

Query CC(=O)Oc1ccc2c(=O)c(Oc3ccccc3[N+](=O)[O-])coc2c1 next
no

Query CCOc1ccc2ccccc2c1C(=O)N[C@@H]1C(=O)N2[C@@H]1SC(C)(C)[C@@H]2C(=O)O next
no

Query COc1ccc(NC(=O)CC(c2ccccc2)c2ccco2)cc1 (stereo not drawn) next
no

Query Cc1cccc(-n2c(Cc3ccccc3)n[nH]c2=S)c1 next
no

Query COc1ccc2oc(=O)c(C(=O)Nc3ccccc3-c3ccccc3)cc2c1 next
yes

Query CC(=O)[C@@]1(O)CC[C@H]2[C@@H]3CCC4=CC(=O)CC[C@]4(C)[C@H]3[C@@H](O)C[C@@]21C next
no

Query COc1ccc(CN(CCC(c2ccccc2)c2ccc(OC(C)C)cc2)C(=O)CCl)cc1OC (stereo not drawn) next
no

Query Nc1nnc(CSCc2ccc(Cl)cc2Cl)s1 next
no

---

- Experiment notes: TOR pathway LAP4-GFP level changes – S. cerevisiae, multiplex flow cytometry, primary screen (AID 1873)
- Condition info: S. cerevisiae LAP4-GFP expression, 3 h, at 10 µM, hits give high values
Inconclusive results are not listed.
Recorded endpoint: GFP response vs DMSO (%)
Respond numerically; units are % and should not be typed.

Look up GFP response vs DMSO for this molecule: CC(C)=CC/C=C1\CCC(C(=O)O)C(C(=O)O)C1 (centres undefined)
81.4

Query CCOC(=O)[C@H]1O[C@@H]1C(=O)N[C@@H](CC(C)C)C(=O)NCCC(C)C next
82.5

Query O=C1CC(c2ccc(OCCCCCOc3ccc(C4CC(=O)NC4=O)cc3)cc2)C(=O)N1 (centres undefined) next
82.8

Query C/C=C(/C(=C/C)c1ccc(O)cc1)c1ccc(O)cc1 next
81.4

Query O=C(/C=C/c1ccccc1)NC(=O)c1ccccc1O next
121

Query COc1cc(/C=C/C(=O)CC(=O)/C=C/c2ccc(O)c(OC)c2)ccc1O next
114

Query O=C(O)c1ccccc1Nc1cccc(C(F)(F)F)c1 next
93.1

Query Cc1csc(N)n1 next
86.9

Query O=CNC1CCCc2c1[nH]c1ccc(Cl)cc21 (centres undefined) next
89.4

Query CCCC(=O)Nc1ccccc1NC(C)=O next
99.1

Query Cc1cc(-c2nn(-c3ccccc3F)cc2CN2CCCC(O)C2)c(C)s1 (centres undefined) next
117

Query Cc1ccc2c(c1)c(C)cc(=O)n2CCC(=O)O next
116

Query CC(C)(C)N(Cc1ccccc1)C(=O)c1ccc(Br)o1 next
107

Query COCCCN1C(=O)C(=O)/C(=C(/O)c2ccc3c(c2)CC(C)O3)C1c1cccnc1 (centres undefined) next
114

Query Cc1cc(C)cc(Nc2nc3c([nH]2)c(=O)n(C)c(=O)n3C)c1 next
103

Query CCC1CCc2c(sc(NC(=O)c3cccnc3)c2C(N)=O)C1 (centres undefined) next
108

Query CC(=O)c1ccc(CCCCCCCCCC(=O)O)s1 next
174

Query COc1ccc(NC2=C(Cl)C(=O)N(c3ccccc3)C2=O)c(OC)c1 next
106

Query Cc1ncoc1C(=O)N1CCCC(C(=O)c2ccc(-c3ccccc3)c(F)c2)C1 (centres undefined) next
76.5

Query CC(=O)NC(Cc1ccccc1)C(=O)OCC(=O)c1ccccc1 (centres undefined) next
106

Query C#C[C@]1(O)CC[C@H]2[C@@H]3CCc4cc(OC5CCCC5)ccc4[C@H]3CC[C@@]21C next
126

Query Clc1ccc2c(c1)[C@H]1OCC[C@H]1[C@@H](c1ccco1)N2 next
113

Query COc1cc2c(cc1OC)-c1nnc(C)n1C(C)(C)C2 next
102

Query CCOC(=O)c1ncn2c1CN(C)C(=O)c1cc(F)ccc1-2 next
107

Query COc1ccccc1OCC(=O)O next
122

Query Cc1ccc(N2C(=O)c3ccccc3C2=O)cc1C next
99.1

Query O=C(CN1CCN(Cc2ccccc2)CC1)N1CCCc2c1c(=O)oc1ccc(O)cc21 next
77.6

Query CCC(=O)O[C@]1(C(=O)CCl)[C@@H](C)C[C@H]2[C@@H]3CCC4=CC(=O)C=C[C@]4(C)[C@@]3(F)[C@@H](O)C[C@@]21C next
91.5

Query O=c1c(-c2ccccc2)c(O)c2cccc3c2n1CCC3 next
132

Query Cc1ccc(S(=O)(=O)Oc2ccccc2/C=N/N=C(N)N)cc1 next
93.7

Query Cn1cc(/C=C/C(=O)c2ccccc2)c2ccccc21 next
133

Query CCOC(=O)N1CCN(Cc2nc(Cc3cccc(F)c3)no2)CC1 next
99.9

Query O=C(COc1cc(O)c2c(=O)c3ccccc3oc2c1)OCc1ccccc1 next
85.5

Query CCOc1ccc(C(=O)NC(C)C2COc3ccccc3O2)cc1 (centres undefined) next
110
